Tested on: U937 cells (human monocytic cell line)
Experiment: BzATP-induced IL-1β secretion inhibition in PMA-differentiated U937 cells
Assay type: cell-based
Details: U-937, U937 cells differentiated with PMA, read-out: IL-1β production inhibition grade (IC50)
OBSERVABLE: IC50

C[C@H](CCC(=O)N(CCO)CCS(=O)(=O)O)[C@H]1CC[C@H]2[C@@H]3[C@H](O)C[C@@H]4C[C@H](O)CC[C@]4(C)[C@H]3C[C@H](O)[C@]12C | < 50 nM
C[C@H](CCC(=O)N1CCC[C@H](S(=O)(=O)O)C1)[C@H]1CC[C@H]2[C@@H]3CC[C@@H]4CC(=O)CC[C@]4(C)[C@H]3CC[C@]12C | ≥ 200 nM
CC[C@H]1[C@@H](O)[C@@H]2[C@H](CC[C@]3(C)[C@@H]([C@H](C)CCC(=O)NC[C@@H](C)S(=O)(=O)O)CC[C@@H]23)[C@@]2(C)CC[C@@H](O)C[C@@H]12 | ≥ 200 nM
C[C@H](CCC(=O)N[C@H](CS(=O)(=O)O)c1ccccc1)[C@H]1CC[C@H]2[C@@H]3[C@H](O)C[C@@H]4C[C@H](O)CC[C@]4(C)[C@H]3C[C@H](O)[C@]12C | ≥ 200 nM
C[C@H](CCC(=O)NC(C)(C)CS(=O)(=O)O)[C@H]1CC[C@H]2[C@@H]3[C@H](O)C[C@@H]4C[C@H](O)CC[C@]4(C)[C@H]3C[C@H](O)[C@]12C | < 50 nM

// moving on: another record for IC50
# get_value(readout='IC50', item= C[C@H](CCC(=O)Nc1ccc(S(=O)(=O)O)cc1)[C@H]1CC[C@H]2[C@@H]3CC[C@@H]4C[C@H](O)CC[C@]4(C)[C@H]3C[C@H](O)[C@]12C )
< 50 nM

---

# pIC50 listing for each entry below
System: U937 cells (human monocytic cell line)
Test: Pam2CSK4-induced TNF-α secretion inhibition in PMA-differentiated U937 cells
Assay type: cell-based
Conditions: U-937, U937 cells differentiated with PMA, read-out: TNF-α production inhibition grade (IC50)
pIC50: −log10 of the molar value.

Recorded results for 4 molecules are shown here.
C[C@H](CCC(=O)NCCCO)[C@H]1CC[C@H]2[C@@H]3CC[C@@H]4C[C@H](O)CC[C@]4(C)[C@H]3CC[C@]12C [NC10054] | 5.70 to 6.00
C[C@H](CCC(=O)N[C@@H](C)CS(=O)(=O)O)[C@H]1CC[C@H]2[C@@H]3CC[C@@H]4CC(=O)CC[C@]4(C)[C@H]3CC[C@]12C [NC30028] | 6.00 to 6.30
C[C@H](CCC(=O)N1CC[C@@H](S(=O)(=O)O)C1)[C@H]1CC[C@H]2[C@@H]3CC[C@@H]4CC(=O)CC[C@]4(C)[C@H]3CC[C@]12C [NC30034] | 6.00 to 6.30
CC[C@H]1[C@@H](O)[C@@H]2[C@H](C[C@H](O)[C@]3(C)[C@@H]([C@H](C)CCC(=O)N[C@@H](CC(C)C)CS(=O)(=O)O)CC[C@@H]23)[C@@]2(C)CC[C@@H](O)C[C@@H]12 [NC50030] | ≤ 5.70

# get_value(readout='pIC50', item= CC[C@H]1[C@@H](O)[C@@H]2[C@H](CC[C@]3(C)[C@@H]([C@H](C)CCC(=O)N(CCO)CCS(=O)(=O)O)CC[C@@H]23)[C@@]2(C)CC[C@@H](O)C[C@@H]12 [NC40006] )
5.70 to 6.00

These entries and their values trace back to patent US20240391948A1.
